Test system: SN12C renal
Test: NCI-60 one-dose screen, 48 h
Settings: 10 µM unless noted
Compounds without any hit were thinned out: in the full panel of roughly 83,000, 20% have a hit. The source made the active and inactive calls. How the source made its calls: active means growth percent below 10; inactive means the rest.
Tick one outcome: 1 (yes) (active), 0 (no) (inactive)

Please review the following examples before continuing.
O=C(/C=C/c1cccc(Cl)c1)c1cccc(OCCCOc2cccc(C(=O)/C=C/c3cccc(Cl)c3)c2)c1 : 0 (no)
O=C(Nc1cccc(-c2ccc(Cl)c(C(F)(F)F)c2)c1)C1CCN(Cc2cccc3cccnc23)CC1 : 1 (yes)
NC(Cc1ccc(O)c([N+](=O)[O-])c1)C(=O)O (stereo unspecified) : 0 (no)

Data request: Which outcome was entered for the molecule `CCCCCOC(=O)c1c(C)[nH]c(/C=C2\N=C(c3ccc[nH]3)C=C2OC)c1C` in this test?
Data returned: 1 (yes)

Data request: For this molecule, state the assay outcome: Cc1nc2sc(C(=O)Nc3cccc(Br)c3)c(N)c2cc1C(O)c1ccccc1 (stereo unspecified)
Data returned: 0 (no)

Data request: Kindly provide the recorded test outcome for the following molecule: `O=C(N/N=C/c1c(Cl)cccc1Cl)c1cccnc1Nc1cccc(C(F)(F)F)c1`
Data returned: 0 (no)

Data request: Call for entry `O=c1[nH]c(-c2ccccc2)nc2sc3cc(O)ccc3c12` :
Data returned: 0 (no)

Data request: // return assay outcome for `CCCC/C(CC)=N\NS(=O)(=O)c1ccc([N+](=O)[O-])cc1`
Data returned: 0 (no)
